target.desc: T1, IL-18 receptor (IL-18Rα/IL-18Rβ) on cells (HEK-Blue IL18R reporter cells, NK-92, KG-1) (human, UniProt Q13478 19-541; O95256 20-599)
T1 sequence (looked up) 1: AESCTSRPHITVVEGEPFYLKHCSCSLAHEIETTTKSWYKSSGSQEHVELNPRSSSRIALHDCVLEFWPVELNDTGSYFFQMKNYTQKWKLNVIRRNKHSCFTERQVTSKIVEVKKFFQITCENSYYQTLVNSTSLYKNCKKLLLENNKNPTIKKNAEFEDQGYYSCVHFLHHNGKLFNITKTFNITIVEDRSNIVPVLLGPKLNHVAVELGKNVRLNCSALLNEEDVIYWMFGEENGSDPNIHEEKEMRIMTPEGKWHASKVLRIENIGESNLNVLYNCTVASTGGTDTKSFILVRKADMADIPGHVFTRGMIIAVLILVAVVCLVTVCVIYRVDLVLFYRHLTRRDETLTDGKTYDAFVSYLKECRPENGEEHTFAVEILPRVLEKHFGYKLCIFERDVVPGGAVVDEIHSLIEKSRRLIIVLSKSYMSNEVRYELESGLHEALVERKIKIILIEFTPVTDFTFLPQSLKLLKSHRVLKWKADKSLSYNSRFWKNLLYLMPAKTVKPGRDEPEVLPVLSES
T1 sequence (looked up) 2: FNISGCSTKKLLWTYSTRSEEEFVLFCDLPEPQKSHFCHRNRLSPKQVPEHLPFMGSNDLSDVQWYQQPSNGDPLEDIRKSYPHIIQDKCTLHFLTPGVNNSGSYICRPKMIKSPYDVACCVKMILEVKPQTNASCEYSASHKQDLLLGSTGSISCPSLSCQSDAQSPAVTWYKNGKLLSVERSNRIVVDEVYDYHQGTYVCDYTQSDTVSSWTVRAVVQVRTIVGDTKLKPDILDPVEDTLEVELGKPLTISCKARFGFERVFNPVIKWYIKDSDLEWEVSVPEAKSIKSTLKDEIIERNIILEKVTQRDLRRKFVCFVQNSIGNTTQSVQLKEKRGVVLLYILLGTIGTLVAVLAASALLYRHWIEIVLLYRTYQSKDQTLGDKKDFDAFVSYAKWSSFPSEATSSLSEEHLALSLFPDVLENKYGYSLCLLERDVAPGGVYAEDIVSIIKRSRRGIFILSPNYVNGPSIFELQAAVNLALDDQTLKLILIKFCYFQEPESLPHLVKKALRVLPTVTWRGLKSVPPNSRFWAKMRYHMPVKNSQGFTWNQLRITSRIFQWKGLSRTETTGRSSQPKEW
protocol.summary: cell-based or functional assay
Each entry below carries its recorded EC50, HEK-Blue IL18R reporter cells.
Field: numeric (pM). Do not append units.

- binder: "IL-18 polypeptide of SEQ ID NO: 60 (E6K, C38Q, K53A) (ligand) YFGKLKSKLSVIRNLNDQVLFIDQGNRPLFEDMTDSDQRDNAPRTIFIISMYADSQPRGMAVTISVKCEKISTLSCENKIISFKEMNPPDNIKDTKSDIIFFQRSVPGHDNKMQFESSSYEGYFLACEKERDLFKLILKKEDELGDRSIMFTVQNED"
  EC50, HEK-Blue IL18R reporter cells (pM): 0.203

Continue with the binder presented below.
EC50, HEK-Blue IL18R reporter cells in this record for IL-18 polypeptide C159 (ligand, also called V11I, C38A, K53A, C76A, H109A, C127A) YFGKLESKLSIIRNLNDQVLFIDQGNRPLFEDMTDSDARDNAPRTIFIISMYADSQPRGMAVTISVKCEKISTLSAENKIISFKEMNPPDNIKDTKSDIIFFQRSVPGADNKMQFESSSYEGYFLAAEKERDLFKLILKKEDELGDRSIMFTVQNED : 19.5
